Molecular target: T1, LIN7A, O14910
T1 sequence (O14910 103-200, limits assumed, looked up): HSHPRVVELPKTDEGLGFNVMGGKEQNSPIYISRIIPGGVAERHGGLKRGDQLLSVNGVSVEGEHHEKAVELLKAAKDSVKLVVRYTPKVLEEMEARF
Assay: holdup assay
Design: key: below the threshold = too weak to quantify, mostly under pKd 3.1 to 4
Details: plain residues with an end cap or a label only (N-terminal biotin on a linker: ado-ado)

# BINDER, pKd
rows = [
    ("QSGLYESEEL [MYOT, Q9UBF9]", "below the threshold"),
    ("SLNANEVEWF [RNF130, Q86XS8]", "below the threshold"),
    ("DTKNYKQTSV [CRIPT, Q9P021]", 3.56),
    ("KPGKGSETVV [FZD4, Q9ULV1]", "below the threshold"),
]
